All values here come from BigSolDB 2.1.

Settings: in n-hexane, 318.15 K
Measurement Label: solubility (mole fraction)
Output spec: single numeric token, no unit.

What solubility (mole fraction) value was documented for this molecule, "COC(=O)[C@@H](N)CC(C)C.Cl" ?
0.000983

----------
Conditions: in ethyl acetate, 323.15 K
Measurement Label: solubility (mole fraction)
Output spec: single numeric token, no unit.

What solubility (mole fraction) value was documented for this molecule, "COC(=O)[C@@H](N)CC(C)C.Cl" ?
0.00124

----------
Settings: in isopropyl acetate, 298.15 K
Measurement Label: solubility (mole fraction)
Output spec: single numeric token, no unit.

What solubility (mole fraction) value was documented for this molecule, "COC(=O)[C@@H](N)CC(C)C.Cl" ?
0.000219
